ASSAY_TARGET: CaMyo5
EXPERIMENT_SUMMARY: SPOT peptide array binding signal intensity (averaged, normalized) (arbitrary units (background-subtracted, floor 0; scale differs between SH3 domains)); higher = stronger binding of the SH3 domain to the peptide
Class TRUE: SPOT peptide array binding signal intensity at least 10. Class FALSE: SPOT peptide array binding signal intensity below 10.

> print(dat)
            binder  answer.label
1  QGYPRQPQRPQRYHP         FALSE
2  TYNRTAFQIPGDQSI         FALSE
3  RFKRHRLEFPFNESE          TRUE
4  ISNFVPPNLPMRRFK          TRUE
5  APPLPPTAPPPPSLP          TRUE
6  RRSKSLPTTPGIRSG         FALSE

# evaluate next
Could you please find out whether NTMKKRPAPPSLPSL has SPOT peptide array binding signal intensity that meets 10 or exceeds it? TRUE
